// reported growth inhibition per item
assay: NCI Yeast Anticancer Drug Screen. Data for the sgs1 mgt1 strain (AID 161);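 further: 0% = growth of cultures given vehicle only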; conditions: S. cerevisiae sgs1 mgt1 strain, at 50.0 µM, stronger effect = higher value
Compounds without any hit were thinned out: in the full panel of roughly 79,000, 15% have a hit. Calls of active or inactive are those of the source. No stated cut-off is given here; in the data, active means growth inhibition above about 70%; inactive means the rest.

O=C(Nc1cccs1)c1c(O)[nH]c(=S)[nH]c1=O ... 25.1% (inactive)
Cc1ccc(C2=CCNCC2)cc1 ... -4.3% (inactive)
CCNP(=S)(OCC)OCC ... 5.05% (inactive)
ClCCN(CCCl)CCN1c2ccc3ccccc3c2Sc2ccc3ccccc3c21 ... 85% (active)
CCC[CH2][Sn]([CH3])([CH3])[CH2]CC[N+](C)(C)C ... 16.9% (inactive)

**Query** Complete the entry with growth inhibition for Nc1c(S(=O)(=O)O)cc(Nc2ccc(S(=O)(=O)O)c(Nc3nc(Cl)nc(Cl)n3)c2)c2c1C(=O)c1ccccc1C2=O
**Result** -27.4% (inactive)

**Query** Complete the entry with growth inhibition for CN1CCC23CC=CCC2C1Cc1ccc([N+](=O)[O-])cc13 (stereo not drawn)
**Result** 7.25% (inactive)

**Query** Complete the entry with growth inhibition for CCC[CH2][Sn]1([CH2]CCC)[O]C(=O)c2ccc(N)cc2[O]1
**Result** 89.5% (active)
